Field: Tmax. Provide a value for each of the molecules that follow.
# assay remarks: Tmax in rat at 20 mg/kg, po
# Type: ADME, organism-based
# Parameters: dose 20 mg/kg, route oral
# run conditions: in vivo
Numbers only, in h.

# entry smiles, Tmax, h
records = [
    ("Cl.N[C@@H](CC(=O)N1CCn2nnc(C(F)F)c2C1)Cc1cc(F)c(F)cc1F", 1),
    ("Cl.N[C@@H](CC(=O)N1CCn2nnc(-c3ccco3)c2C1)Cc1cc(F)c(F)cc1F", 1),
    ("N[C@@H](CC(=O)N1CCn2nnc(-c3ccccn3)c2C1)Cc1cc(F)c(F)cc1F.O=C(O)/C=C/C(=O)O", 1.38),
    ("N[C@@H](CC(=O)N1CCn2nnc(C(F)(F)F)c2C1)Cc1cc(F)c(F)cc1F.O=C(O)/C=C/C(=O)O", 0.88),
]

Your task in this section: give Tmax for each listed record.
1. Cl.NC(=O)c1nnn2c1CN(C(=O)C[C@H](N)Cc1cc(F)c(F)cc1F)CC2
2. N[C@@H](CC(=O)N1CCn2nnc(-c3cnco3)c2C1)Cc1cc(F)c(F)cc1F.O=C(O)/C=C/C(=O)O
3. Cl.N[C@@H](CC(=O)N1CCn2nnc(-c3ccc(C(=O)O)cc3)c2C1)Cc1cc(F)c(F)cc1F

[out]
[0.63, 1.88, 0.38]

----------
# assay remarks: Cmax in rat at 20 mg/kg, po
# Type: ADME, organism-based
# Parameters: dose 20 mg/kg, route oral
# run conditions: in vivo
Cmax of 600 ng/mL or higher: satisfied. Under 600 ng/mL: not satisfied.

Worked set:
# entry smiles, group
measured = [
    ("Cl.NC(=O)c1nnn2c1CN(C(=O)C[C@H](N)Cc1cc(F)c(F)cc1F)CC2", "not satisfied"),
    ("N[C@@H](CC(=O)N1CCn2nnc(C(F)(F)F)c2C1)Cc1cc(F)c(F)cc1F.O=C(O)/C=C/C(=O)O", "satisfied"),
    ("Cl.N[C@@H](CC(=O)N1CCn2nnc(C(F)F)c2C1)Cc1cc(F)c(F)cc1F", "satisfied"),
    ("Cl.N[C@@H](CC(=O)N1CCn2nnc(-c3ccco3)c2C1)Cc1cc(F)c(F)cc1F", "not satisfied"),
    ("N[C@@H](CC(=O)N1CCn2nnc(-c3ccccn3)c2C1)Cc1cc(F)c(F)cc1F.O=C(O)/C=C/C(=O)O", "not satisfied"),
]

API: the following record is the query input.
[in] Is Cmax at least 600 ng/mL? Consider N[C@@H](CC(=O)N1CCn2nnc(-c3cnco3)c2C1)Cc1cc(F)c(F)cc1F.O=C(O)/C=C/C(=O)O
[out] not satisfied

----------
# assay remarks: AUC (0 to t) in rat at 20 mg/kg, po
# Format: ADME, organism-based
# Parameters: dose 20 mg/kg, route oral
# run conditions: plasma
property: AUC(0-t)
# answer = value followed by unit

Below, 4 compounds whose answers are already recorded.
# entry smiles, readout value
measured = [
    ("Cl.N[C@@H](CC(=O)N1CCn2nnc(C(F)F)c2C1)Cc1cc(F)c(F)cc1F", "2520 ng·h/mL"),
    ("N[C@@H](CC(=O)N1CCn2nnc(-c3cnco3)c2C1)Cc1cc(F)c(F)cc1F.O=C(O)/C=C/C(=O)O", "1640 ng·h/mL"),
    ("N[C@@H](CC(=O)N1CCn2nnc(-c3ccccn3)c2C1)Cc1cc(F)c(F)cc1F.O=C(O)/C=C/C(=O)O", "2510 ng·h/mL"),
    ("Cl.NC(=O)c1nnn2c1CN(C(=O)C[C@H](N)Cc1cc(F)c(F)cc1F)CC2", "871 ng·h/mL"),
]

For each entry beneath this line, provide reported AUC(0-t).
1. Cl.N[C@@H](CC(=O)N1CCn2nnc(-c3ccco3)c2C1)Cc1cc(F)c(F)cc1F
2. Cl.N[C@@H](CC(=O)N1CCn2nnc(-c3ccc(C(=O)O)cc3)c2C1)Cc1cc(F)c(F)cc1F
3. N[C@@H](CC(=O)N1CCn2nnc(C(F)(F)F)c2C1)Cc1cc(F)c(F)cc1F.O=C(O)/C=C/C(=O)O

[out]
730 ng·h/mL
1130 ng·h/mL
4560 ng·h/mL
